Molecular target: T1, EsCas13d, nuclease-dead (Eubacterium siraeum, UniProt B0MS50, R295A;H300A;R849A;H854A)
T1 sequence: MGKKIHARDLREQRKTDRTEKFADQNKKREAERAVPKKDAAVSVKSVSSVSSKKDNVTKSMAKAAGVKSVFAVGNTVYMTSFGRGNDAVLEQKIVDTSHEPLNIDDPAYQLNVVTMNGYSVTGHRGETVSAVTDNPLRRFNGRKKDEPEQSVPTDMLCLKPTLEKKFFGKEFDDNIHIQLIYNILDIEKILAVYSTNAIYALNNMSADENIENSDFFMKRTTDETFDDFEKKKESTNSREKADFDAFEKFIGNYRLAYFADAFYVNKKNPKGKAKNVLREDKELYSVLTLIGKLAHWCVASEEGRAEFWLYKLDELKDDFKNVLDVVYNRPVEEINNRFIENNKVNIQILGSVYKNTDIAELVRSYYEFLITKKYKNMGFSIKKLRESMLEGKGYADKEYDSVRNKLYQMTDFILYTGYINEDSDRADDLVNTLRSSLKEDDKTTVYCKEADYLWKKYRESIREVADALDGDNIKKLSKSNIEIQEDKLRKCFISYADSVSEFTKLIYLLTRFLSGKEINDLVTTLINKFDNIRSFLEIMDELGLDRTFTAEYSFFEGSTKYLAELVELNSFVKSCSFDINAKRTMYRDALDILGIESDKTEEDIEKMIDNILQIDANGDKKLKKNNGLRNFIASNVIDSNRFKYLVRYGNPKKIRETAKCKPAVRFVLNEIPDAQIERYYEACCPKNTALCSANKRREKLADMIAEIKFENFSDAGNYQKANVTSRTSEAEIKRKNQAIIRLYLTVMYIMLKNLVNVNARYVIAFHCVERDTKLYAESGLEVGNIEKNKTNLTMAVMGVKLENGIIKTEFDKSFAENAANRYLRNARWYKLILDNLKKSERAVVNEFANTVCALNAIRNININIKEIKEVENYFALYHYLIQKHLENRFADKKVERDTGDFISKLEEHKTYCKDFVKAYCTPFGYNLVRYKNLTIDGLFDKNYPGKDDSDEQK
Assay: crRNA (strand 1, pre-loaded); Mg2+; 40 mM Tris-HCl pH 7.5, 150 mM NaCl, 6 mM MgCl2, 1 mM DTT, 0.1% Tween-20, 0.2 mg/ml BSA; 25 C; 10 min per concentration, then washed
Settings: tags: His6-TwinStrep-SUMO cleaved; N-terminal SNAP kept (SNAP-Surface 488); label: 3' end held by stalled T7 RNA polymerase
pKd: −log10 of the molar value.

# binder, pKd
rows = [
    ("target 2 MT 5'PFS AAG 3'PFS UAA (mixed) RNA 1: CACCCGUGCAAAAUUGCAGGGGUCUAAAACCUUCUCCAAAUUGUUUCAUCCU RNA 2: GGGAAUGGAUCCACAUCUACGAAUUCAAGAGGAUGAAACAAUUUGGAGAAGUAAAGAUCGGAAGAGCACACGU", 8.43),
]
